assay: Intrinsic clearance in human; type: ADME
Our labelling divides records by CLint scaled into ranges: 1: < 20 mL/min/kg; 2: ≥ 20 mL/min/kg and < 100 mL/min/kg; 3: ≥ 100 mL/min/kg

COMPOUND | CLASS_ASSIGNMENT
Cc1nc2cc(NC(=O)C3CCN(S(=O)(=O)c4ccc5c(c4)CCO5)CC3)ccc2s1 | 2
C[C@H]1CN(S(=O)(=O)c2ccc3c(c2)CCO3)CC[C@@H]1C(=O)Nc1ccc2scnc2c1 (racemic) | 2
C[C@@H]1C[C@H](C(=O)Nc2ccc3scnc3c2)CCN1S(=O)(=O)c1ccc2c(c1)CCO2 (racemic) | 3
CC1COc2ccc(S(=O)(=O)N3CCC(C(=O)Nc4ccc5scnc5c4)CC3)cc21 (racemic) | 3
Cc1nn(C)cc1S(=O)(=O)N1CC[C@H](C(=O)Nc2ccc3scnc3c2)[C@@H](F)C1 (racemic) | 1
O=C(Nc1ccc2scnc2c1)C1CCN(S(=O)(=O)c2cccnc2)CC1 | 1
O=C(Nc1ccc2snnc2c1)C1CCN(S(=O)(=O)c2ccc3c(c2)CCO3)CC1 | 3
O=C(Nc1ccc2scnc2c1)C1CCN(S(=O)(=O)c2ccc(Cl)nc2)CC1 | 2
C[C@@H]1C[C@@H](C(=O)Nc2ccc3scnc3c2)CCN1S(=O)(=O)c1ccc2c(c1)CCO2 (racemic) | 3
Cc1nn(C)cc1S(=O)(=O)N1CCC(C(=O)Nc2ccc3scnc3c2)CC1 | 1

IN: Hey, which category is `Cc1ccc(S(=O)(=O)N2CCC(C(=O)Nc3ccc4scnc4c3)CC2)cn1` in, do you know?
OUT: 1

IN: Hey, which category is C[C@@H]1CN(S(=O)(=O)c2ccc3c(c2)CCO3)CC[C@@H]1C(=O)Nc1ccc2scnc2c1 (racemic) in, do you know?
OUT: 3

IN: Hey, which category is Cn1ncc(S(=O)(=O)N2CC[C@H](C(=O)Nc3ccc4scnc4c3)[C@@H](F)C2)c1Cl (racemic) in, do you know?
OUT: 1

IN: Hey, which category is Cc1ncc(S(=O)(=O)N2CC[C@H](C(=O)Nc3ccc4scnc4c3)[C@@H](F)C2)s1 (racemic) in, do you know?
OUT: 1

IN: Hey, which category is `O=C(Nc1ccc2scnc2c1)C1CCN(S(=O)(=O)c2ccc3ncsc3c2)CC1` in, do you know?
OUT: 2

* * *

assay: Volume of distribution at steady state in rat; format: ADME; conditions: in vivo, read-out: Vdss
READOUT_KIND: Vd (L/kg)
# number only, unit L/kg dropped from output

IN: Requested read-out: Vd. Entry: `Cc1nn(C)cc1S(=O)(=O)N1CCC(C(=O)Nc2ccc3scnc3c2)CC1`
OUT: 0.61

* * *

assay: Intrinsic clearance in rat; type: ADME
Rule for this label: condition met means CLint scaled is less than 80 mL/min/kg; condition not met means CLint scaled is at least 80 mL/min/kg.

IN: Determine if `O=C(Nc1ccc2scnc2c1)C1CCN(S(=O)(=O)c2ccc3ncccc3c2)CC1` shows CLint scaled strictly lower than 80 mL/min/kg.
OUT: condition not met

IN: Determine if `O=C(Nc1ccc2snnc2c1)C1CCN(S(=O)(=O)c2ccc3c(c2)CCO3)CC1` shows CLint scaled strictly lower than 80 mL/min/kg.
OUT: condition not met

IN: Determine if `O=C(Nc1ccc2cccnc2c1)C1CCN(S(=O)(=O)c2ccc3c(c2)CCO3)CC1` shows CLint scaled strictly lower than 80 mL/min/kg.
OUT: condition not met

IN: Determine if C[C@@H]1CN(S(=O)(=O)c2ccc3c(c2)CCO3)CC[C@@H]1C(=O)Nc1ccc2scnc2c1 (racemic) shows CLint scaled strictly lower than 80 mL/min/kg.
OUT: condition not met

IN: Determine if `O=C(Nc1ccc2scnc2c1)C1CCN(S(=O)(=O)c2ccc(Cl)nc2)CC1` shows CLint scaled strictly lower than 80 mL/min/kg.
OUT: condition met

IN: Determine if `Cc1ccc(S(=O)(=O)N2CCC(C(=O)Nc3ccc4scnc4c3)CC2)cn1` shows CLint scaled strictly lower than 80 mL/min/kg.
OUT: condition met

IN: Determine if Cc1nn(C)cc1S(=O)(=O)N1CC[C@H](C(=O)Nc2ccc3scnc3c2)[C@@H](F)C1 (racemic) shows CLint scaled strictly lower than 80 mL/min/kg.
OUT: condition not met

IN: Determine if `O=C(Nc1ccc2scnc2c1)C1CCN(S(=O)(=O)c2ccc3c(c2)CCO3)CC1` shows CLint scaled strictly lower than 80 mL/min/kg.
OUT: condition not met

IN: Determine if Cn1ncc(S(=O)(=O)N2CC[C@H](C(=O)Nc3ccc4scnc4c3)[C@@H](F)C2)c1Cl (racemic) shows CLint scaled strictly lower than 80 mL/min/kg.
OUT: condition met

These data points were gathered from ChEMBL document CHEMBL5214935.
